Data origin, for the record: patent US8242280B2

Molecular target: Ba/F3 cells, ABL1 T315I (Homo sapiens, UniProt P00519, T315I, cells depend on it)
Assay: 96-well XTT cell survival assay, Ba/F3 ABL1 T315I
Format: cell-based
Conditions: 72 hours, read-out: ABL1 T315I XTT [Ba/F3] IC50
Readout: GI50

1) COc1ccccc1-c1n[nH]c2ncc(-c3cccc(C(N)C(=O)N(C)CCN(C)C)c3)cc12 (stereo not drawn) = > 1000 nM
2) COc1ccccc1-c1c[nH]c2ncc(-c3cncc(C(O)C(N)=O)c3)cc12 (stereo not drawn) = > 1000 nM
3) COc1ccccc1-c1c[nH]c2ncc(-c3cncc(C(O)CC(C)C)c3)cc12 (stereo not drawn) = < 1000 nM
4) COc1ccccc1-c1n[nH]c2ncc(-c3cccc(C(O)c4ncccc4C)c3)cc12 (stereo not drawn) = < 1000 nM
5) COc1ccccc1-c1n[nH]c2ncc(-c3cccc(C(O)C(=O)NC4CCN(C)CC4)c3)cc12 (stereo not drawn) = > 1000 nM
6) COc1ccccc1-c1c[nH]c2ncc(-c3cccc(C(O)C(=O)N4CC(O)C4)c3)cc12 (stereo not drawn) = > 1000 nM

I need GI50 for every entry listed below, if you could help.
1. CN(C)C(=O)C(O)c1cncc(-c2cnc3[nH]cc(-c4ccnn4-c4ccccc4)c3c2)c1 (stereo not drawn)
2. CN(C)C(=O)C(O)c1cncc(-c2cnc3[nH]cc(-c4ccnn4C)c3c2)c1 (stereo not drawn) [drawing 464]
3. COc1ccccc1-c1n[nH]c2ncc(-c3cccc(C(O)C(=O)N(C)CCO)c3)cc12 (stereo not drawn)
4. COc1ccccc1-c1n[nH]c2ncc(-c3cccc(C(O)CO)c3)cc12 (stereo not drawn)
5. COc1ccccc1-c1c[nH]c2ncc(-c3cncc(C(=O)C(=O)N(C)C)c3)cc12
6. COc1ccccc1-c1c[nH]c2ncc(-c3cccc(C(O)C(=O)N(C)C)n3)cc12 (stereo not drawn)

1. > 1000 nM
2. > 1000 nM
3. < 1000 nM
4. > 1000 nM
5. < 1000 nM
6. > 1000 nM

I need GI50 for every entry listed below, if you could help.
1. COc1ccccc1-c1c[nH]c2ncc(-c3cccc(C(O)C(=O)N(C)CCN(C)C)n3)cc12 (stereo not drawn)
2. CN(C)C(=O)C(O)c1cncc(-c2cnc3[nH]cc(-c4cccc(C(F)(F)F)c4)c3c2)c1 (stereo not drawn)
3. CC(=O)Nc1ccc(-c2c[nH]c3ncc(-c4cncc(C(O)C(=O)N(C)C)c4)cc23)cc1 (stereo not drawn)
4. COc1ccccc1-c1c[nH]c2ncc(-c3cccc(C(CC(=O)N4CCC[C@@H]4CO)N4CCS(=O)(=O)CC4)c3)cc12 (stereo partly drawn)
5. CN(C)C(=O)C(O)c1cncc(-c2cnc3[nH]cc(-c4ccnn4C)c3c2)c1 (stereo not drawn) [drawing 465]

["> 1000 nM", "> 1000 nM", "> 1000 nM", "> 1000 nM", "> 1000 nM"]

Suppose we examine the compound COc1ccccc1-c1n[nH]c2ncc(-c3cccc(C(O)C(=O)N4CCC(N(C)C)C4)c3)cc12 (stereo not drawn) ; what GI50 value has been reported?
< 1000 nM

---

Biological target: Ba/F3 cells, ABL1 WT (Homo sapiens, UniProt P00519)
Experiment: 96-well XTT cell survival assay, Ba/F3 ABL1 WT
Type: cell-based
Details: 72 hours, read-out: ABL1 WT XTT [Ba/F3] IC50
Readout: GI50

1) CNCCN(C)C(=O)C(N)c1cccc(-c2cnc3[nH]cc(-c4ccccc4OC)c3c2)c1 (stereo not drawn) = > 1000 nM
2) COc1ccccc1-c1n[nH]c2ncc(-c3cccc(C(C(=O)N(C)CCN(C)C)N(C)C)c3)cc12 (stereo not drawn) = > 1000 nM
3) COc1ccccc1-c1c[nH]c2ncc(-c3cccc(C(O)c4ncccc4C(F)(F)F)c3)cc12 (stereo not drawn) = > 1000 nM

I need GI50 for every entry listed below, if you could help.
1. COc1ccccc1-c1n[nH]c2ncc(-c3cccc(C(O)c4ncccc4C)c3)cc12 (stereo not drawn)
2. CN(C)C(=O)C(O)c1cncc(-c2cnc3[nH]cc(-c4ccccc4)c3c2)c1 (stereo not drawn)
3. COc1ccccc1-c1n[nH]c2ncc(-c3cccc(C(O)C(=O)N(C)CCNC(C)(C)C)c3)cc12 (stereo not drawn)
4. COc1ccccc1-c1n[nH]c2ncc(-c3cccc(C(O)c4ncco4)c3)cc12 (stereo not drawn)
5. COc1ccccc1-c1c[nH]c2ncc(-c3cccc(C(F)C(=O)N(C)C)c3)cc12 (stereo not drawn)
6. COc1ccc(F)cc1-c1c[nH]c2ncc(-c3cc(C(O)C(=O)N(C)C)c[n+]([O-])c3)cc12 (stereo not drawn)

1. < 1000 nM
2. < 1000 nM
3. < 1000 nM
4. < 1000 nM
5. > 1000 nM
6. > 1000 nM

---

Molecular target: unphosphorylated T315I Abl kinase domain (Mus musculus, UniProt P00520, T315I)
Construct: purified and unphosphorylated T315I Abl kinase domain
Sequence (P00520 242-493 T315I limits assumed): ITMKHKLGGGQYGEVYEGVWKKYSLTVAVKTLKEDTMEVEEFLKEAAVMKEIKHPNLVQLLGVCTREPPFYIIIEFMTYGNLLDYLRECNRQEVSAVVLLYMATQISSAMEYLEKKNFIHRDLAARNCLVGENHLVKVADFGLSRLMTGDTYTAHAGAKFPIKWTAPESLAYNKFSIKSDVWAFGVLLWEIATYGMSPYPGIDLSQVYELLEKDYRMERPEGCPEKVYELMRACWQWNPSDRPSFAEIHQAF
Experiment: c-Abl T315I 0P bioassay (pyruvate kinase/lactate dehydrogenase coupled enzyme assay)
Details: zero phosphorylation state (0P), 10 μM ATP, read-out: AbI T315I 0P IC50
Procedure: Although the first of these examples uses the kinase domain of a mutant form of Abl T315I (“Abl T315I KD”), the kinase assays may use various forms of mutant and wild type enzymes, including, for example, the entire protein, the kinase domain, or a portion thereof (e.g. Abl Y393F). The kinases used in the assays may also be of varying phosphorylation states. […] Activity was measured by following the time-dependent loss of NADH by absorbance spectroscopy at 340 nm. […]
Readout: IC50

# annotated cases, reported IC50 shown
1. CN(C)C(=O)C(O)c1cncc(-c2cnc3[nH]cc(-c4ccnn4C)c3c2)c1 (stereo not drawn) [drawing 464] = 50 to 500 nM
2. COc1ccccc1-c1c[nH]c2ncc(-c3cncc(C(O)C(=O)N(C)C(C)C)c3)cc12 (stereo not drawn) = < 50 nM
3. COc1ccccc1-c1n[nH]c2ncc(-c3cccc(C(O)c4nccn4C)c3)cc12 (stereo not drawn) = < 50 nM
4. CN(C)C(=O)C(O)c1cncc(-c2cnc3[nH]cc(-c4ccccc4OC(F)(F)F)c3c2)c1 (stereo not drawn) = < 50 nM
5. CN(C)C(=O)C(O)c1cncc(-c2cnc3[nH]cc(-c4ccc(Cl)cc4)c3c2)c1 (stereo not drawn) = < 50 nM

I need IC50 for every entry listed below, if you could help.
1. COc1ccccc1-c1n[nH]c2ncc(-c3cccc(C(N)C(=O)N(C)CCN(C)C)c3)cc12 (stereo not drawn)
2. COc1ccc(F)cc1-c1c[nH]c2ncc(-c3cc(C(O)C(=O)N(C)C)c[n+]([O-])c3)cc12 (stereo not drawn)
3. CC(=O)c1ccccc1-c1c[nH]c2ncc(-c3cncc(C(O)C(=O)N(C)C)c3)cc12 (stereo not drawn)
4. Cc1cccc(-c2c[nH]c3ncc(-c4cncc(C(O)C(=O)N(C)C)c4)cc23)c1 (stereo not drawn)
5. COc1ccccc1-c1n[nH]c2ncc(-c3cccc(C(O)C(=O)N(C)C4CCN(C)C4)c3)cc12 (stereo not drawn)
6. COc1ccccc1-c1c[nH]c2ncc(-c3ccnc(C(O)C(=O)N(C)C)c3)cc12 (stereo not drawn)

["< 50 nM", "< 50 nM", "50 to 500 nM", "< 50 nM", "< 50 nM", "< 50 nM"]

I need IC50 for every entry listed below, if you could help.
1. COc1ccccc1-c1c[nH]c2ncc(-c3cnc(N)c(C(O)C(=O)N(C)C)c3)cc12 (stereo not drawn)
2. COc1ncccc1-c1c[nH]c2ncc(-c3cncc(C(O)C(=O)N(C)C)c3)cc12 (stereo not drawn)
3. COc1ccccc1-c1c[nH]c2ncc(-c3cccc(C(O)C(=O)N(C)C[C@@H](O)CO)c3)cc12 (stereo partly drawn)
4. COc1ccccc1-c1n[nH]c2ncc(-c3cccc(C(O)C(=O)N(C)CCNC(C)(C)C)c3)cc12 (stereo not drawn)
5. COc1ccccc1-c1c[nH]c2ncc(-c3cccc(C(N)C(=O)N(C)C)c3)cc12 (stereo not drawn)
6. COc1ccccc1-c1c[nH]c2ncc(-c3cccc(C(CC(=O)N4CCC[C@@H]4CO)N4CCS(=O)(=O)CC4)c3)cc12 (stereo partly drawn)

< 50 nM
< 50 nM
< 50 nM
< 50 nM
< 50 nM
50 to 500 nM

Suppose we examine the molecule COc1ccccc1-c1c[nH]c2ncc(-c3cncc(C(O)C(=O)N(C)C)c3)cc12 (stereo not drawn) ; what IC50 value has been reported?
< 50 nM

---

Target: unphosphorylated T315I Abl kinase domain (Mus musculus, UniProt P00520, T315I)
Construct: purified and unphosphorylated T315I Abl kinase domain
Assay: c-Abl T315I 0P bioassay (pyruvate kinase/lactate dehydrogenase coupled enzyme assay)
Settings: zero phosphorylation state (0P), 10 μM ATP, read-out: AbI T315I 0P IC50
Readout: IC50

# annotated cases, reported IC50 shown
1. COc1ccccc1-c1c[nH]c2ncc(-c3cccc(C(N)CC(=O)N4CCC[C@@H]4CO)c3)cc12 (stereo partly shown) = < 50 nM
2. COc1ccccc1-c1n[nH]c2ncc(-c3cccc(C(O)C(=O)N(C)CCO)c3)cc12 (stereo not shown) = < 50 nM
3. COc1ccccc1-c1n[nH]c2ncc(-c3cncc(C(O)C(=O)N(C)C)c3)cc12 (stereo not shown) = < 50 nM
4. COc1ccccc1-c1c[nH]c2ncc(-c3cc(C(C#N)C(=O)N(C)C)ncn3)cc12 (stereo not shown) = > 500 nM
5. COc1ccccc1-c1c[nH]c2ncc(-c3cncc(C(O)CC(C)C)c3)cc12 (stereo not shown) = < 50 nM
6. COc1ccccc1-c1c[nH]c2ncc(-c3cccc(C(N)C(=O)N(C)CCN(C)C)c3)cc12 (stereo not shown) = < 50 nM
7. CN(C)C(=O)C(O)c1cncc(-c2cnc3[nH]cc(-c4cccc(F)c4F)c3c2)c1 (stereo not shown) = < 50 nM
8. COc1ccccc1-c1n[nH]c2ncc(-c3cccc(C(O)C(N)=O)c3)cc12 (stereo not shown) = < 50 nM

I need IC50 for every entry listed below, if you could help.
1. COc1ccccc1-c1n[nH]c2ncc(-c3cccc(C(O)C(=O)N(C)C4CCS(=O)(=O)C4)c3)cc12 (stereo not shown)
2. CN(C)C(=O)C(O)c1cncc(-c2cnc3[nH]cc(-c4cccc(C(F)(F)F)c4)c3c2)c1 (stereo not shown)
3. COc1ccccc1-c1n[nH]c2ncc(-c3cccc(C(O)C(=O)N4CCC(O)CC4)c3)cc12 (stereo not shown)

< 50 nM
< 50 nM
< 50 nM

I need IC50 for every entry listed below, if you could help.
1. COc1ccccc1-c1n[nH]c2ncc(-c3cccc(C(C(=O)N4CCC(N(C)C)C4)N(C)C)c3)cc12 (stereo not shown)
2. Cc1n[nH]cc1-c1c[nH]c2ncc(-c3cncc(C(O)C(=O)N(C)C)c3)cc12 (stereo not shown)

50 to 500 nM
< 50 nM
